The values you see were collected from PubChem BioAssay (NCATS).

Tested on: Tov112D
assay.comment: Primary qHTS to identify gynecologic anti-cancer compounds using libraries of approved drugs and bioactive compounds (AID 1345084); note: nearly all actives have a fitted effect of over 55% in size
condition.notes: Gynecologic cancer cell panel viability, ATPlite luminescence, 48 h; series mostly up to 57.5 µM
Inconclusive results are not listed. Calls of active or inactive are those of the source. Calls come from the whole dose curve; as a rule, active = well fitted cell-killing curve with a large enough effect; inconclusive = small, poorly fitted or top-dose-only effect, or effect the other way; inactive = flat fitted curve, though single readings scatter.

[
  {
    "molecule": "CC1(C)CC[C@]2(C(=O)O)CC[C@]3(C)C(=CCC4[C@@]5(C)C(=O)C[C@H](O)[C@@](C)(CO)C5CC[C@]43C)[C@@H]2C1 (stereo partly drawn)",
    "activity change, negative = cytotoxicity": "inactive"
  },
  {
    "molecule": "C=C(C(=O)O)[C@H]1C[C@]2(C)C(=O)CC[C@]23O[C@H]1C[C@@H]3C",
    "activity change, negative = cytotoxicity": "inactive"
  },
  {
    "molecule": "C[C@@]1(O)[C@H](O)[C@@H](CO)O[C@H]1n1cnc2c(=O)[nH]c(N)nc21",
    "activity change, negative = cytotoxicity": "inactive"
  }
]
